system-name: prolyl oligopeptidase (PREP) (Homo sapiens, UniProt P48147)
Construct: purchased R&D Systems
Sequence (P48147 whole entry): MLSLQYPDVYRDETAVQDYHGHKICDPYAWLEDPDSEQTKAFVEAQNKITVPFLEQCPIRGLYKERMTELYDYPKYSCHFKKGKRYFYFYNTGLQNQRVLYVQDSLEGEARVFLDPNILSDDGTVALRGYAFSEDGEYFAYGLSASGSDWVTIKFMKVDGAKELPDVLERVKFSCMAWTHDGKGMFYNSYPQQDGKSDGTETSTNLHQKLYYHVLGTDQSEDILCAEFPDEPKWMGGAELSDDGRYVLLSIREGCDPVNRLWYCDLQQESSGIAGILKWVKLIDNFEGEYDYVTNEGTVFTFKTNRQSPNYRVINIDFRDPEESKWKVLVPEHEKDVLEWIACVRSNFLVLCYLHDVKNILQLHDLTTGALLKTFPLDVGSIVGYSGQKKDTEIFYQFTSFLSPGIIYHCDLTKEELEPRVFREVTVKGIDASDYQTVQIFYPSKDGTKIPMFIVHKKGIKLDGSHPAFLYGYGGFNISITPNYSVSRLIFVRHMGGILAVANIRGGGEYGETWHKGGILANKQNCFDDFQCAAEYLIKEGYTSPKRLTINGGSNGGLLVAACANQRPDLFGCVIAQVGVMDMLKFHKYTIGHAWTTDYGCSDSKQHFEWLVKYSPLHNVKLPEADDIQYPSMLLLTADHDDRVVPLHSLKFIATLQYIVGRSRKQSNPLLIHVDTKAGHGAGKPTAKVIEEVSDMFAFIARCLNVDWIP
experimental-details: Enzymatic inhibition assay, PREP
Type: biochemical
reported-conditions: recombinant PREP, n = 3; picture: nM ± 95% CI
parameter-measured: IC50 (nM)
Express it in nM; write the number only.

Form entry - test system: prolyl oligopeptidase (PREP) (Homo sapiens, UniProt P48147); read-out: IC50; compound: CN1/C(=C/C=C/C=C/C2=[N+](CCCCCC(=O)NCCCOc3cccc4c(C(=O)NCC(=O)N5CC(F)(F)C[C@H]5C#N)ccnc34)c3ccc(S(=O)(=O)[O-])cc3C2(C)C)C(C)(C)c2cc(S(=O)(=O)O)ccc21 [eFAP-7]
475

Missing value: IC50, prolyl oligopeptidase (PREP) (Homo sapiens, UniProt P48147), entry CN(CCCN1CCN(C(=O)CN2CCN(CC(=O)O)CCN(CC(=O)O)CCN(CC(=O)O)CC2)CC1)c1ccc2nccc(C(=O)NCC(=O)N3CC(F)(F)C[C@H]3C#N)c2c1 [FAPI-46, reference compound] . Fill in?
3480

Write down the reported IC50 of N#C[C@@H]1CC(F)(F)CN1C(=O)CNC(=O)c1ccnc2c(OCCCNC(=O)CN3CCN(CC(=O)O)CCN(CC(=O)O)CCN(CC(=O)O)CC3)cccc12 [eFAP-6] , test system: prolyl oligopeptidase (PREP) (Homo sapiens, UniProt P48147).
161
